Values were extracted from patent US20200231684A1.

The following binders are shown together with reported Kd values.
Target: T1, recombinant human IL-36R (ECD) (human, UniProt Q9HB29 20-332)
T1 construct: range 20-332; also called IL-1RL2; IL-1Rrp2
T1 sequence (looked up): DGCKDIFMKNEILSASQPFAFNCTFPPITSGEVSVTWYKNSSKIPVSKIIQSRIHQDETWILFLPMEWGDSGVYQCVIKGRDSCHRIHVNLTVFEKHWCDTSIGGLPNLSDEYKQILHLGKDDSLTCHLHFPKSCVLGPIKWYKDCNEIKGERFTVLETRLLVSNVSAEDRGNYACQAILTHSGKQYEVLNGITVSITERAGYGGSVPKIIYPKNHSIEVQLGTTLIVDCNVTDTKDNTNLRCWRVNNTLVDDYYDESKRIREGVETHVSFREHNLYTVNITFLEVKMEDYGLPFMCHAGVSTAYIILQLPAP
Test: SPR (ProteOn), recombinant human IL-36R at 7 surface densities, global fit
API: value field is a number in pM; no unit string.

Guide cases for Kd, answers given:
antibody 81B4 (antibody, V domains shown, Mouse monoclonal from hybridoma; also called 81B4E11; Mouse 81B4) VH: QVQLQQPGADFVRPGASMRLSCKASGYSFTSSWIHWVKQRPGQGLEWIGEINPGNVRTNYNENFRNKATLTVDKSSTTAYMQLRSLTSADSAVYYCTVVFYGEPYFPYWGQGTLVTVSA VL: QIVLTQSPAIMSASLGERVTMTCTASSSVSSSYFHWYQQKPGSSPKLWIYRTSNLASGVPGRFSGSGSGTSYSLTISSMEAEDAATYYCHQFHRSPLTFGAGTKLELK ... 24
antibody 73F6 (antibody, V domains shown, Mouse monoclonal from hybridoma; also called 73F6F8; Mouse 73F6) VH: QVQLKESGPGLVAPSQSLSITCTVSGFSLTNYAVHWVRQFPGKGLEWLGVIWSDGSTDYNAPFKSRLSINKDNSKSQVFFKMNSLQTDDTAIYYCARKGGYSGSWFAYWGQGTLVTVSA VL: DIVMTQSQKFLSTSVGVRVSVTCKASQDVGTNVLWYQQKIGQSPKALIYSASYRHSGVPDRFTGSGSGTDFTLIITNVQSEDLAEYFCQQYSRYPLTFGPGTKLELK ... 25
antibody 73C5 (antibody, V domains shown, Mouse monoclonal from hybridoma; also called 73C5C10; Mouse 73C5) VH: QVQLKESGPGLVAPSQSLSITCTVSGFSLTNYAVHWVRQFPGKGLEWLGVIWSDGSTDFNAPFKSRLSINKDNSKSQVFFKMNSLQIDDTAIYYCARKGGYSGSWFAYWGQGTLVTVSA VL: DIVMTQSQKFLSTSVGVRVSVTCKASQDVGTNVLWYQQKIGQSPKPLIYSASYRHSGVPDRFTGSGSGTDFTLIISNVQSEDLAEYFCQQYSRYPLTFGPGTKLELK ... 57

Look at this binder and give its reported Kd. antibody 81A1 (antibody, V domains shown, Mouse monoclonal from hybridoma; also called 81A1D1; Mouse 81A1) VH: QVQLKESGPGLVAPSQSLFITCTVSGFSLSSYEINWVRQVPGKGLEWLGVIWTGITTNYNSALISRLSISKDNSKSLVFLKMNSLQTDDTAIYYCARGTGTGFYYAMDYWGQGTSVTVSS VL: DIQMTQTTSSLSASLGDRVTISCRASQDIYKYLNWYQQKPDGTLKLLIYYTSGLHSGVPSRFSGSGSGTDFSLTISNLEPEDIATYFCQQDSKFPWTFGGDTKLEIK
16
